testSummary: Brain-penetrating pharmacokinetic test
Format: in vivo, Sprague-Dawley (SD) rat
runConditions: Sprague-Dawley, rat, brain tissue / plasma, po; SD rats, p.o., 10 mg/kg, single administration; read-out: Total drug brain-to-plasma ratio (B/P)
Catalogue of compounds with associated Kp
Give the figure by itself; no unit, no explanation.

[2H]C([2H])([2H])N1CCN(Cc2ccc(C(=O)Nc3ccc(C)c(Nc4nc(-c5cccnc5)cs4)c3)c(F)c2)CC1: 0.51
[2H]C([2H])([2H])N1CCN(Cc2ccc(C(=O)Nc3ccc(C(F)(F)F)c(Nc4nc(-c5cccnc5)cs4)c3)c(F)c2)CC1: 0.75
[2H]C([2H])(c1ccc(C(=O)Nc2ccc(C(F)(F)F)c(Nc3nc(-c4cccnc4)cs3)c2)c(F)c1)N1CCN(C)CC1: 0.71

Which Kp value belongs to [2H]C([2H])(c1ccc(C(=O)Nc2ccc(C(F)(F)F)c(Nc3nc(-c4ccc(F)nc4)cs3)c2)c(F)c1)N1CCN(C)CC1 ?
0.78

Can you handle Cc1ccc(NC(=O)c2ccc(CN3CCN(C)CC3)cc2)cc1Nc1nc(-c2cccnc2)cs1 [Masitinib, reference compound] next?
0.2

Can you handle [2H]C([2H])([2H])N1CCN(C([2H])([2H])c2ccc(C(=O)Nc3ccc(C)c(Nc4nc(-c5cccnc5)cs4)c3)c(F)c2)CC1 next?
0.55

---

testSummary: Brain-penetrating pharmacokinetic test
Type: in vivo, Sprague-Dawley (SD) rat
runConditions: SD rats, p.o., 10 mg/kg, single administration, brain tissue
Simple rule here: Total drug concentration in brain tissue less than 3000 ng·h/mL is true (1), otherwise false (0).

Here are 5 compounds together with their reported answers.
[2H]C([2H])([2H])N1CCN(C([2H])([2H])c2ccc(C(=O)Nc3ccc(C)c(Nc4nc(-c5cccnc5)cs4)c3)c(F)c2)CC1: true (1)
[2H]C([2H])([2H])N1CCN(Cc2ccc(C(=O)Nc3ccc(C(F)(F)F)c(Nc4nc(-c5cccnc5)cs4)c3)c(F)c2)CC1: false (0)
[2H]C([2H])(c1ccc(C(=O)Nc2ccc(C(F)(F)F)c(Nc3nc(-c4ccc(F)nc4)cs3)c2)c(F)c1)N1CCN(C)CC1: false (0)
[2H]C([2H])([2H])N1CCN(Cc2ccc(C(=O)Nc3ccc(C)c(Nc4nc(-c5cccnc5)cs4)c3)c(F)c2)CC1: true (1)
Cc1ccc(NC(=O)c2ccc(CN3CCN(C)CC3)cc2)cc1Nc1nc(-c2cccnc2)cs1 [Masitinib, reference compound]: true (1)

Shifting focus to the compound that follows.
In the record for [2H]C([2H])(c1ccc(C(=O)Nc2ccc(C(F)(F)F)c(Nc3nc(-c4cccnc4)cs3)c2)c(F)c1)N1CCN(C)CC1 , is Total drug concentration in brain tissue less than 3000 ng·h/mL?
true (1)

---

testSystem: c-Kit kinase (Homo sapiens, UniProt P10721)
Sequence (P10721 26-976): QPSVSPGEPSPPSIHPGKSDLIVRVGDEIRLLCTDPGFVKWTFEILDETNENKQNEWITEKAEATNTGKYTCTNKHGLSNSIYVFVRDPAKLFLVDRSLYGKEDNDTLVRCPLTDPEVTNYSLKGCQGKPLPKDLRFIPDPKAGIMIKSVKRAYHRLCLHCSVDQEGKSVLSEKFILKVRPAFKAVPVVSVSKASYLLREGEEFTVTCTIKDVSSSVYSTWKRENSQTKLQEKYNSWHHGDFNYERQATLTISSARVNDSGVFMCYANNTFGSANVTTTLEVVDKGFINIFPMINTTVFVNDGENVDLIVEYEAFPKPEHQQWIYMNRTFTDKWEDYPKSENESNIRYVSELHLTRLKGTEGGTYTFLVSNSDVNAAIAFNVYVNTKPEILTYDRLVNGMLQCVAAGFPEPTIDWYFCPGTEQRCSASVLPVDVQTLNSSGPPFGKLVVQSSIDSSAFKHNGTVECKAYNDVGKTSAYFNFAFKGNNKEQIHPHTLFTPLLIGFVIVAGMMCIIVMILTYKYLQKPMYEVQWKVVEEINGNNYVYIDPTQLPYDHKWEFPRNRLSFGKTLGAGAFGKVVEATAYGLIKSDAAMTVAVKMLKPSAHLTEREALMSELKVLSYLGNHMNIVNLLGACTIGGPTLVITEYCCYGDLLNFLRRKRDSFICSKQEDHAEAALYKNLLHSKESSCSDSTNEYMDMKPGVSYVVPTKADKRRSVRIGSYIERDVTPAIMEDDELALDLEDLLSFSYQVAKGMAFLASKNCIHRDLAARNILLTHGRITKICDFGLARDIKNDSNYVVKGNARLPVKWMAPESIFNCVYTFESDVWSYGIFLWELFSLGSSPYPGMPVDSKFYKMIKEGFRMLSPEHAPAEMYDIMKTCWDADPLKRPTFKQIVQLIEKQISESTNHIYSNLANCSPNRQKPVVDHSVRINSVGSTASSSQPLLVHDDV
testSummary: Enzyme activity assay (c-Kit kinase)
Format: biochemical
propertyLabel: IC50 (nM)
Give the number; nM is assumed, so skip it.

Sample records with IC50:
[2H]C([2H])([2H])N1CCN(C([2H])([2H])c2ccc(C(=O)Nc3ccc(C(F)(F)F)c(Nc4nc(-c5cccnc5)cs4)c3)cc2)CC1 [Compound T-15]: 3.56
[2H]C([2H])([2H])N1CCN(C([2H])([2H])c2ccc(C(=O)Nc3ccc(C(F)(F)F)c(Nc4nc(-c5cccnc5)cs4)c3)c(F)c2)CC1 [Compound T-18]: 3.12
[2H]C([2H])([2H])N1CCN(Cc2ccc(C(=O)Nc3ccc(C)c(Nc4nc(-c5cccnc5)cs4)c3)c(F)c2)CC1 [Compound T-01]: 1.67
[2H]C([2H])([2H])N1CCN(Cc2ccc(C(=O)Nc3ccc(C(F)(F)F)c(Nc4nc(-c5cccnc5)cs4)c3)c(F)c2)CC1 [Compound T-20]: 2.1

Which IC50 value belongs to [2H]C([2H])([2H])N1CCN(Cc2ccc(C(=O)Nc3ccc(C(F)(F)F)c(Nc4nc(-c5ccc(F)nc5)cs4)c3)c(F)c2)CC1 [Compound T-19] ?
2.11

---

testSummary: Preclinical pharmacokinetic test in rats
Type: in vivo
runConditions: rat, po; male SD rats, intragastric administration (p.o.), 10 mg/kg, plasma
Simple rule here: Cmax less than 500 ng/mL is Yes, otherwise No.

[2H]C([2H])(c1ccc(C(=O)Nc2ccc(C(F)(F)F)c(Nc3nc(-c4ccc(F)nc4)cs3)c2)c(F)c1)N1CCN(C)CC1: No
[2H]C([2H])([2H])N1CCN(Cc2ccc(C(=O)Nc3ccc(C)c(Nc4nc(-c5cccnc5)cs4)c3)c(F)c2)CC1: Yes
[2H]C([2H])(c1ccc(C(=O)Nc2ccc(C)c(Nc3nc(-c4cccnc4)cs3)c2)cc1)N1CCN(C)CC1: Yes
[2H]C([2H])([2H])N1CCN(C([2H])([2H])c2ccc(C(=O)Nc3ccc(C(F)(F)F)c(Nc4nc(-c5ccc(F)nc5)cs4)c3)c(F)c2)CC1: No

Shifting focus to the molecule that follows.
In the record for Cc1ccc(NC(=O)c2ccc(CN3CCN(C)CC3)cc2)cc1Nc1nc(-c2cccnc2)cs1 [Masitinib, reference compound] , is Cmax less than 500 ng/mL?
Yes

---

testSummary: Brain-penetrating pharmacokinetic test
Assay type: in vivo, Sprague-Dawley (SD) rat
runConditions: SD rats, p.o., 10 mg/kg, single administration, plasma
Catalogue of compounds with associated Total drug concentration in plasma
Give the number; ng·h/mL is assumed, so skip it.

[2H]C([2H])(c1ccc(C(=O)Nc2ccc(C(F)(F)F)c(Nc3nc(-c4cccnc4)cs3)c2)c(F)c1)N1CCN(C)CC1 [Compound T-21]: 3891.87

Which Total drug concentration in plasma value belongs to Cc1ccc(NC(=O)c2ccc(CN3CCN(C)CC3)cc2)cc1Nc1nc(-c2cccnc2)cs1 [Masitinib, reference compound] ?
1771.48

Can you handle [2H]C([2H])([2H])N1CCN(C([2H])([2H])c2ccc(C(=O)Nc3ccc(C)c(Nc4nc(-c5cccnc5)cs4)c3)c(F)c2)CC1 [Compound T-08] next?
3269.32

Can you handle [2H]C([2H])(c1ccc(C(=O)Nc2ccc(C(F)(F)F)c(Nc3nc(-c4ccc(F)nc4)cs3)c2)c(F)c1)N1CCN(C)CC1 [Compound T-16] next?
4012.56

Can you handle [2H]C([2H])([2H])N1CCN(Cc2ccc(C(=O)Nc3ccc(C(F)(F)F)c(Nc4nc(-c5cccnc5)cs4)c3)c(F)c2)CC1 [Compound T-20] next?
4123.20

Can you handle [2H]C([2H])([2H])N1CCN(Cc2ccc(C(=O)Nc3ccc(C)c(Nc4nc(-c5cccnc5)cs4)c3)c(F)c2)CC1 [Compound T-01] next?
2687.12

---

Catalogue of molecules with associated IC50
testSystem: c-Kit kinase (Homo sapiens)
testSummary: Enzyme activity assay (c-Kit kinase)
Format: biochemical
Give the number; nM is assumed, so skip it.

Sample records with IC50:
[2H]C([2H])(c1ccc(C(=O)Nc2ccc(C(F)(F)F)c(Nc3nc(-c4ccc(F)nc4)cs3)c2)cc1)N1CCN(C)CC1: 3.55
[2H]C([2H])(c1ccc(C(=O)Nc2ccc(C(F)(F)F)c(Nc3nc(-c4ccc(F)nc4)cs3)c2)c(F)c1)N1CCN(C)CC1: 2.12
[2H]C([2H])([2H])N1CCN(C([2H])([2H])c2ccc(C(=O)Nc3ccc(C(F)(F)F)c(Nc4nc(-c5ccc(F)nc5)cs4)c3)c(F)c2)CC1: 1.35
[2H]C([2H])(c1ccc(C(=O)Nc2ccc(C(F)(F)F)c(Nc3nc(-c4cccnc4)cs3)c2)c(F)c1)N1CCN(C)CC1: 1.36
[2H]C([2H])([2H])N1CCN(C([2H])([2H])c2ccc(C(=O)Nc3ccc(C)c(Nc4nc(-c5cccnc5)cs4)c3)c(F)c2)CC1: 3.89

# context switch: different molecule, same IC50
Which IC50 value belongs to [2H]C([2H])(c1ccc(C(=O)Nc2ccc(C(F)(F)F)c(Nc3nc(-c4cccnc4)cs3)c2)cc1)N1CCN(C)CC1 ?
2.13

---

testSummary: Preclinical pharmacokinetic test in rats
Format: in vivo
runConditions: rat, po; male SD rats, intragastric administration (p.o.), 10 mg/kg, plasma
Text: Healthy adult SD rats, male, aged 6-8 weeks, with a body weight of 200-300 g, purchased from Vital River Company; EDTA-Na2 anticoagulant; and analytical balance, animal weighing scale, magnetic stirrer, refrigerated centrifuge, single-channel manual pipette, and the like. • 1. […] A quantitative detection method for the test compound was established by using a Shimadzu liquid chromatography system and a Triple Quad TM 6500+AB mass spectrometer. A concentration of a parent drug in plasma was determined. […]
Catalogue of compounds with associated AUC
Give the number; µg·h/mL is assumed, so skip it.

Sample records with AUC:
[2H]C([2H])([2H])N1CCN(C([2H])([2H])c2ccc(C(=O)Nc3ccc(C)c(Nc4nc(-c5cccnc5)cs4)c3)cc2)CC1 [Compound T-04]: 3.26
Cc1ccc(NC(=O)c2ccc(CN3CCN(C)CC3)cc2)cc1Nc1nc(-c2cccnc2)cs1 [Masitinib, reference compound]: 1.77
[2H]C([2H])([2H])N1CCN(Cc2ccc(C(=O)Nc3ccc(C)c(Nc4nc(-c5cccnc5)cs4)c3)c(F)c2)CC1 [Compound T-01]: 2.69
[2H]C([2H])(c1ccc(C(=O)Nc2ccc(C(F)(F)F)c(Nc3nc(-c4ccc(F)nc4)cs3)c2)c(F)c1)N1CCN(C)CC1 [Compound T-16]: 4.01
[2H]C([2H])([2H])N1CCN(C([2H])([2H])c2ccc(C(=O)Nc3ccc(C(F)(F)F)c(Nc4nc(-c5ccc(F)nc5)cs4)c3)c(F)c2)CC1 [Compound T-17]: 4.29
[2H]C([2H])([2H])N1CCN(C([2H])([2H])c2ccc(C(=O)Nc3ccc(C(F)(F)F)c(Nc4nc(-c5cccnc5)cs4)c3)c(F)c2)CC1 [Compound T-18]: 4

# context switch: different compound, same AUC
Which AUC value belongs to [2H]C([2H])(c1ccc(C(=O)Nc2ccc(C)c(Nc3nc(-c4cccnc4)cs3)c2)cc1)N1CCN(C)CC1 [Compound T-02] ?
2.37
